molecular target: Neu5Ac(a2-6)Gal(b1-4)GlcNAc(b1-2)Man(a1-3)[Man(a1-6)]Man(b1-4)GlcNAc(b1-4)GlcNAc; experiment: glycan array binding signal (z-score within array); higher = stronger binding; settings: glycan notation: IUPAC condensed, linker removed
The entries come from a sample that favours the strongest signals as a whole.
The binders listed here are annotated with their glycan array binding signal (z-score).
parameter: glycan array binding signal (z-score)

- binder: "Eosinophil cationic protein (ECP) (Homo sapiens), P12724 (protein) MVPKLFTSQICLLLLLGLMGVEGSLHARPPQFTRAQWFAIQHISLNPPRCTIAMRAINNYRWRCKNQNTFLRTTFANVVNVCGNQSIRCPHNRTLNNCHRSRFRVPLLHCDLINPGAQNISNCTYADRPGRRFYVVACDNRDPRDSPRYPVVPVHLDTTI"
  reportedMeasurement: -0.018
- binder: "PpFlo3 (Pichia pastoris) (protein) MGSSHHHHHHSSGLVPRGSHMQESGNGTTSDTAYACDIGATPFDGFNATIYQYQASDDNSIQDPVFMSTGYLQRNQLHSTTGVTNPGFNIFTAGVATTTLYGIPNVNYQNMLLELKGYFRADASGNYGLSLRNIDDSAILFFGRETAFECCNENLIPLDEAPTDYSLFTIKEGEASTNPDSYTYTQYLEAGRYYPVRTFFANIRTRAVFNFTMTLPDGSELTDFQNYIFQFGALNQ"
  reportedMeasurement: -0.281
- binder: "Calsepa (Calystegia sepium), P93114 (protein) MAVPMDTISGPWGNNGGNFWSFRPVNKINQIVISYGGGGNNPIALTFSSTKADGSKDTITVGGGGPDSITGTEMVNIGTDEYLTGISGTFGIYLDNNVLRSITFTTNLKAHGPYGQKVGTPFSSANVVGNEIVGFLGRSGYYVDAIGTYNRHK"
  reportedMeasurement: 3.86
- binder: "EUL D1A second (Oryza sativa) (protein) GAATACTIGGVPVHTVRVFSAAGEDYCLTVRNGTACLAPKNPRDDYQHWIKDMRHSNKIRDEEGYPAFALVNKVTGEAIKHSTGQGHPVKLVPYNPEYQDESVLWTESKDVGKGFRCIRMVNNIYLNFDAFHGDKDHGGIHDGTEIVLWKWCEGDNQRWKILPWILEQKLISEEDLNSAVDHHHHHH"
  reportedMeasurement: 0.117
- binder: "CpGal16 (Clavelina picta) (protein) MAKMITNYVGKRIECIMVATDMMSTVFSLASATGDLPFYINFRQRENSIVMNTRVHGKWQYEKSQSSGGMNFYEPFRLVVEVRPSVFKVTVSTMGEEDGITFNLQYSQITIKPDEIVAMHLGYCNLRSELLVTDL"
  reportedMeasurement: -0.395
- binder: "CM2 (Cordyceps militaris) (protein) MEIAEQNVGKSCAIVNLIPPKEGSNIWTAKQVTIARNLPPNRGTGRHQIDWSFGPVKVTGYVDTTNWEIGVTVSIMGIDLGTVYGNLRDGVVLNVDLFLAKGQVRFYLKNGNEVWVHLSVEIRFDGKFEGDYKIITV"
  reportedMeasurement: -0.907
- binder: "GNL (Galanthus nivalis) (protein) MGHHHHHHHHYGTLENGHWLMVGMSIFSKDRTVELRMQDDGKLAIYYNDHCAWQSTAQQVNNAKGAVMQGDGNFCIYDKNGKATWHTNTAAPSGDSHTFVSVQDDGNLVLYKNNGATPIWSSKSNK"
  reportedMeasurement: 5.43
- binder: "Tachylectin-2 (Tachypleus tridentatus), TAL2_TACTR (protein) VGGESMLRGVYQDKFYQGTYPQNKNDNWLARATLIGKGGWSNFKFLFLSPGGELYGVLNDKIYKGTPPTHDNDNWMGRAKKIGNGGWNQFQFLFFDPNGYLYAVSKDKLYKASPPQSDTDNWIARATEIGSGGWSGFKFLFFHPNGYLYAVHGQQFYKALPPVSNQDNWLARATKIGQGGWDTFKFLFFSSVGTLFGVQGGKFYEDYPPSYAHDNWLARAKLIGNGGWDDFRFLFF"
  reportedMeasurement: -0.295
- binder: "ASAL (Allium sativum), P83886 (protein) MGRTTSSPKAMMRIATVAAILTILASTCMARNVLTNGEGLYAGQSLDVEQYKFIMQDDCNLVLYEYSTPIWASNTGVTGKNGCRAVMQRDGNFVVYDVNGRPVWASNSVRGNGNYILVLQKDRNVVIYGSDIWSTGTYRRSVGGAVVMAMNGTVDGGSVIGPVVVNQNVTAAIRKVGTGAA"
  reportedMeasurement: 0.085
- binder: "HHA (Hippeastrum hybrid) (protein) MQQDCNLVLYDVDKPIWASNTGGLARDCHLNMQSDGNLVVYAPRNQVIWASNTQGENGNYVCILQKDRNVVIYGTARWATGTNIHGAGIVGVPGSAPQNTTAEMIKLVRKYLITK"
  reportedMeasurement: 0.002
- binder: "LlpB (Pseudomonas fluorescens) (protein) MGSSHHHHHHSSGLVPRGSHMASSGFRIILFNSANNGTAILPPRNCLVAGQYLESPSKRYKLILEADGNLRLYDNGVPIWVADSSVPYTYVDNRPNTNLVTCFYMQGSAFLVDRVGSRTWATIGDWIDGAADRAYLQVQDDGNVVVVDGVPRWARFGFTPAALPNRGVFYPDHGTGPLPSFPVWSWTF"
  reportedMeasurement: 2.88
- binder: "rCnSL-proA (Clitocybe nebularis) (protein) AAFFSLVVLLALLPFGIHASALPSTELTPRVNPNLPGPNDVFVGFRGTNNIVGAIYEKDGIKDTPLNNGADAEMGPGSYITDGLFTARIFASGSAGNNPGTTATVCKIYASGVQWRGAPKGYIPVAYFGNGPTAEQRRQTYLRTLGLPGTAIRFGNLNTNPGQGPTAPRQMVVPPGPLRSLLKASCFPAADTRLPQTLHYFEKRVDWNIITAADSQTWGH"
  reportedMeasurement: -0.337
- binder: "Mermaid2 (Stilbonema majum) (protein) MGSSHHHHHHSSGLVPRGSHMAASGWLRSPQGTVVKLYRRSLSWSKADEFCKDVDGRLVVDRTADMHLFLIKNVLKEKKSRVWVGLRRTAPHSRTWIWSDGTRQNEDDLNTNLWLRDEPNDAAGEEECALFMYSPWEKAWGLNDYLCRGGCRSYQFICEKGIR"
  reportedMeasurement: -0.03
- binder: "CFEM-PPm (Pichia pastoris), F2QPV1 (protein) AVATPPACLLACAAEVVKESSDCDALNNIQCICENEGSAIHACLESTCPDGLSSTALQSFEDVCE"
  reportedMeasurement: -0.253
